Cited source for all entries: ChEMBL document CHEMBL4689842

# System: Fibroblast
# procedureDetails: Multiplex assay against human fibroblast
# Type: toxicity, cell-based
# testConditions: 12 h, 1 µM, compound concentration 1 uM, replicate 1
assayMetric: Total Cell Count

Below: 2 compounds and their reported Total Cell Count.
[
  {
    "compoundStructure": "C=C1/C(=C\\C=C2/CCC[C@]3(C)[C@@H]([C@H](C)/C=C/[C@H](C)C(C)C)CC[C@@H]23)C[C@@H](O)C[C@@H]1O",
    "Total Cell Count": 94
  },
  {
    "compoundStructure": "COc1cc(N2CCN(C)CC2)ccc1Nc1ncc2c(n1)N(C)c1ccccc1C(=O)N2C",
    "Total Cell Count": 135
  }
]

Now look at this one.
So the reported Total Cell Count for Cc1ccc(C(=O)Nc2cccc(C(F)(F)F)c2)cc1Nc1nc(-c2cccnc2)nc2c1cnn2C , on Fibroblast, turned out to be 122

* * *

# System: Fibroblast
# procedureDetails: Multiplex assay against human fibroblast
# Assay type: toxicity, cell-based
# testConditions: 24 h, 1 µM, compound concentration 1 uM, replicate 1
assayMetric: Population Mitochondria Different-Phenotype (%)
Write the answer as a number in %, unit excluded.

[
  {
    "compoundStructure": "CNC(=O)c1ccc(Nc2nc(OC3CCCC3)c3c(-c4ccc5nc(C)oc5c4)c[nH]c3n2)c(OC)c1",
    "unitDescriptor": "%",
    "val": 11
  }
]

Kindly note the recorded Population Mitochondria Different-Phenotype (%) for O=C(Cc1ccc(-c2ccc(OCCN3CCOCC3)cc2)cn1)NCc1ccccc1 , which is 9

Kindly note the recorded Population Mitochondria Different-Phenotype (%) for CN[C@@H]1C[C@H]2O[C@@](C)([C@@H]1OC)n1c3ccccc3c3c4c(c5c6ccccc6n2c5c31)C(=O)NC4 , which is 0

Kindly note the recorded Population Mitochondria Different-Phenotype (%) for C=CCn1c(=O)c2cnc(Nc3ccc(N4CCN(C)CC4)cc3)nc2n1-c1cccc(C(C)(C)O)n1 , which is 9

Kindly note the recorded Population Mitochondria Different-Phenotype (%) for CCNc1cc(N[C@H]2CC[C@H](O)CC2)nc(Nc2ccc3c(ccn3Cc3ccccc3)c2)n1 , which is 10

Kindly note the recorded Population Mitochondria Different-Phenotype (%) for CCOc1cc(C(=O)N2CCC(N3CCN(C)CC3)CC2)ccc1Nc1ncc2c(n1)N(C1CCCC1)c1ccccc1C(=O)N2C , which is 17

Kindly note the recorded Population Mitochondria Different-Phenotype (%) for S=C(NCCCc1c[nH]cn1)NCCCN(Cc1ccc(Cl)c(Cl)c1)c1ccc(Br)cn1 , which is 11

Kindly note the recorded Population Mitochondria Different-Phenotype (%) for COc1cccc2cc(-c3nc([C@H]4CC[C@H](C(=O)O)CC4)n4ncnc(N)c34)[nH]c12 , which is 1

Kindly note the recorded Population Mitochondria Different-Phenotype (%) for Cl.Oc1ccc2c3c1O[C@H]1c4[nH]c5c(c4C[C@@]4(O)[C@@H](C2)N(CC2CC2)CC[C@]314)C[C@@]1(O)[C@H]2Cc3ccc(O)c4c3[C@@]1(CCN2CC1CC1)[C@H]5O4 , which is 2

Kindly note the recorded Population Mitochondria Different-Phenotype (%) for Cc1cn(-c2cc(NC(=O)c3ccc(C)c(Nc4nccc(-c5cccnc5)n4)c3)cc(C(F)(F)F)c2)cn1 , which is 32

Kindly note the recorded Population Mitochondria Different-Phenotype (%) for NC(=O)c1cccc(-c2cc(Nc3ccc(OC(F)(F)F)cc3)ncn2)c1 , which is 7

Kindly note the recorded Population Mitochondria Different-Phenotype (%) for CNc1cc(Oc2cc(C(=O)Nc3cc(N4CCN(C)CC4)cc(C(F)(F)F)c3)ccc2C)ncn1 , which is 10

Kindly note the recorded Population Mitochondria Different-Phenotype (%) for O=C(Nc1cccnn1)N1CCC(=Cc2cccc(Oc3ccc(C(F)(F)F)cn3)c2)CC1 , which is 12

Kindly note the recorded Population Mitochondria Different-Phenotype (%) for CCn1c(=O)c(-c2ccc(-c3cncs3)cc2Cl)cc2cnc(Nc3ccc(N4CCN(C)CC4)cc3)nc21 , which is 0

Kindly note the recorded Population Mitochondria Different-Phenotype (%) for O=C(Nc1ccc(Cl)cc1)Nc1cccc(-c2cccc(N3CCCC3)n2)c1 , which is 0

Kindly note the recorded Population Mitochondria Different-Phenotype (%) for COc1cc(N2CCN(C)CC2)ccc1Nc1ncc2c(n1)N(C)c1ccccc1C(=O)N2C , which is 6

Kindly note the recorded Population Mitochondria Different-Phenotype (%) for Cc1ccc2nc(NCCN)c3ncc(C)n3c2c1.O=C(O)C(F)(F)F.O=C(O)C(F)(F)F , which is 0

Kindly note the recorded Population Mitochondria Different-Phenotype (%) for COc1ccc(S(=O)(=O)N(CCO)c2ccccc2CN(C)C/C=C/c2ccc(Cl)cc2)cc1.O=P(O)(O)O , which is 79
